- system_tested: UniProt:Q9GZQ6
- Sequence (Q9GZQ6 whole entry): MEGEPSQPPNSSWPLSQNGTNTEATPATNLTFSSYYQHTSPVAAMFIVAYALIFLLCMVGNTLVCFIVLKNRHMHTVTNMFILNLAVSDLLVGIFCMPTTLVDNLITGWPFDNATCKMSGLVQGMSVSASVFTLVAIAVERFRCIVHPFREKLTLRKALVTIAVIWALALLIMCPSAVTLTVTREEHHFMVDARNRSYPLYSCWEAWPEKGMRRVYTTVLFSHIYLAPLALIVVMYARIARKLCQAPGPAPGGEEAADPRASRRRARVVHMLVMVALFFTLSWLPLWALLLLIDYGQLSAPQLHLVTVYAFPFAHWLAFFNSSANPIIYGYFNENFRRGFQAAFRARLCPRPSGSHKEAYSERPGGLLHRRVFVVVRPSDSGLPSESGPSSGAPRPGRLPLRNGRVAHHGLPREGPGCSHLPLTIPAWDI
- assay_remarks: Human NPFFR1 evaluation using BRET biosensors (antagonist IC50)
- measurement_setup: hNPFFR1 transiently over-expressed in HEK-293 T cells; BRET signal; stimulation by EC80 RFRP-3
Listing: IC50 of selected molecules

Here is how some molecules turned out for IC50.
[[record]]
structure_notation = "Nc1ccc(-c2cccc3ncccc23)c(N)n1"
result_value = "0.1 to 1 µM"

[[record]]
structure_notation = "Cc1nc(N)ccc1-c1cccc2cccnc12.Cl"
result_value = "0.1 to 1 µM"

[[record]]
structure_notation = "CCc1nc(N)ccc1-c1c(Cl)ccc2ccc(O)nc12"
result_value = "< 0.1 µM"

[[record]]
structure_notation = "CCc1nc(N)ccc1-c1c(F)ccc2c1OC(C)(C)CC2.Cl"
result_value = "< 0.1 µM"


Let's switch to this molecule now.
Report IC50 for CCc1nc(N)ccc1-c1c(F)ccc2c1OCC=CC2.Cl please.
< 0.1 µM
